# protocol: Cytotoxicity against HEK293T/17 cells by MTT assay
# Assay type: toxicity, cell-based
# test-conditions: human, hek293t/17
property-measured: CC50 (µM)

molecule="CC(OC(C)(C)C)[C@H](NC(=O)OCc1ccccc1)C(=O)N[C@@H](CC1CCCCC1)C(=O)N[C@H](C=O)C[C@@H]1CCNC1=O (single isomer, unassigned)" property_measured=CC50 endpoint_result=109
molecule=CC(C)C[C@H](NC(=O)[C@@H](NC(=O)OCc1cccc(Cl)c1)[C@@H](C)OC(C)(C)C)C(=O)N[C@H](C=O)C[C@@H]1CCNC1=O property_measured=CC50 endpoint_result=183
molecule=CC(C)[C@H](NC(=O)OCc1cccc(Cl)c1)C(=O)N[C@@H](CC1CCCCC1)C(=O)N[C@H](C=O)C[C@@H]1CCNC1=O property_measured=CC50 endpoint_result=114
molecule=C[C@@H](OC(C)(C)C)[C@H](NC(=O)OCc1cccc(Cl)c1)C(=O)N[C@@H](CC1CCCCC1)C(=O)N[C@H](C=O)C[C@@H]1CCNC1=O property_measured=CC50 endpoint_result=130

Measured values drawn from ChEMBL document CHEMBL5113464 for this set.
